Where do the numbers come from? From patent US12702660B2.

Assay: Plasma PK of 450 mg capsules in fasted and fed patients, dose expansion
Type: in vivo, human
Details: human, plasma, oral, 450 mg, 450 mg QD capsules, Dose Expansion-Fed; Geometric Mean (GeoCV %); read-out: Vss
Experimental: Blood samples were collected at the planned time points from each patient and centrifuged. […] The concentration data were then analyzed using Phoenix® WinNonlin software to obtain PK parameters. […] Blood samples (approximately 5 mL each) were collected from human patients pre-dose and at various hourly time points post-dose. Plasma concentrations of H3B-6545 were determined using a validated high-performance liquid chromatography/tandem mass spectrometry (LC-MS/MS) method. […]
parameter: Vd (L)
Give bare numbers, in L.

Entry "CN(C)C(=O)/C=C/CNCCOc1ccc(/C(=C(/CC(F)(F)F)c2ccccc2)c2ccc3[nH]nc(F)c3c2)cn1" has what Vd?
350

* * *

experiment: Plasma PK of 450 mg capsules in fasted and fed patients, dose expansion; assay type: in vivo, human; details: human, plasma, oral, 450 mg, 450 mg QD capsules, Dose Expansion-Fed; Median (Min, Max)
parameter: Tmax (h)
Numbers only, in h.

Entry "CN(C)C(=O)/C=C/CNCCOc1ccc(/C(=C(/CC(F)(F)F)c2ccccc2)c2ccc3[nH]nc(F)c3c2)cn1" has what Tmax?
6

* * *

experiment: Plasma PK of 450 mg capsules in fasted and fed patients, dose expansion; assay type: in vivo, human; conditions: human, plasma, oral, 450 mg, 450 mg QD capsules, Dose Expansion-Fed; Geometric Mean (GeoCV %); read-out: AUC0-t
parameter: AUC(0-t) (ng·h/mL)
Give bare numbers, in ng·h/mL.

Entry "CN(C)C(=O)/C=C/CNCCOc1ccc(/C(=C(/CC(F)(F)F)c2ccccc2)c2ccc3[nH]nc(F)c3c2)cn1" has what AUC(0-t)?
16100

* * *

assay: Plasma PK of H3B-6545 capsules in fasted patients, phase 1 dose escalation; type: in vivo, human; conditions: female, human, plasma, oral, 200 mg, Cycle 1 Day 15; 200 mg QD capsules, fasted patients; Geometric Mean (GeoCV %); read-out: AUC0-24
parameter: AUC(0-t)

Entry CN(C)C(=O)/C=C/CNCCOc1ccc(/C(=C(/CC(F)(F)F)c2ccccc2)c2ccc3[nH]nc(F)c3c2)cn1 [H3B-6545] has what AUC(0-t)?
6870 ng·h/mL

* * *

assay: Plasma PK of H3B-6545 capsules in fasted patients, phase 1 dose escalation; assay type: in vivo, human; conditions: female, human, plasma, oral, 600 mg, Cycle 1 Day 15; 600 mg QD capsules, fasted patients; Geometric Mean (GeoCV %)
parameter: Cmax (ng/mL)
Answers are plain numbers, in ng/mL.

Entry "CN(C)C(=O)/C=C/CNCCOc1ccc(/C(=C(/CC(F)(F)F)c2ccccc2)c2ccc3[nH]nc(F)c3c2)cn1" has what Cmax?
1680

* * *

experiment: Plasma PK of H3B-6545 capsules in fasted patients, phase 1 dose escalation; assay type: in vivo, human; conditions: female, human, plasma, oral, 450 mg, Cycle 1 Day 1; 450 mg QD capsules, fasted patients; Geometric Mean (GeoCV %); read-out: AUC0-24
parameter: AUC(0-t) (ng·h/mL)
Give bare numbers, in ng·h/mL.

Entry "CN(C)C(=O)/C=C/CNCCOc1ccc(/C(=C(/CC(F)(F)F)c2ccccc2)c2ccc3[nH]nc(F)c3c2)cn1" has what AUC(0-t)?
16200
